Data origin: ChEMBL document CHEMBL1136140

# target.or.test.system: Secreted effector protein (Yersinia pestis, UniProt O68720)
# Sequence (O68720 whole entry): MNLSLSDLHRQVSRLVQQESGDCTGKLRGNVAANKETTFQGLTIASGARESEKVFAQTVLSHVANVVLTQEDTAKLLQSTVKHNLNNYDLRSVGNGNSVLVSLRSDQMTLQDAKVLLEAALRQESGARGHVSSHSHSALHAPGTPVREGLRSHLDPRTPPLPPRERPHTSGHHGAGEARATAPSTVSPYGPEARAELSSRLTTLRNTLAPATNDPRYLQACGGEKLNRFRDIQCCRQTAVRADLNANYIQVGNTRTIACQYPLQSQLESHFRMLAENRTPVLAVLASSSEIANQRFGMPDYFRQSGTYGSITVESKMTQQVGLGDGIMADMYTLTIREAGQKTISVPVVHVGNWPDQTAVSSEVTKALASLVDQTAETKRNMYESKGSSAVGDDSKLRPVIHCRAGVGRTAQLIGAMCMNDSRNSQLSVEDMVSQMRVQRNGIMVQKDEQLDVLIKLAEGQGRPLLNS
# run.description: Inhibition of Tyrosine phosphatase from Yersinia pestis expressed in Escherichia coli BL21 (DE3) cells
pIC50: −log10 of the molar value.
Reported pIC50 values follow for various molecules
measurement.kind: pIC50

{"columns": ["smiles.structure", "target.or.test.system", "relation.qualifier", "readout.number"],
 "data": [
  ["CC(C)C[C@H](NC(=O)[C@H](Cc1ccc(OC(F)(C(=O)O)C(=O)O)cc1)NC(=O)[C@H](CCC(=O)OCc1ccccc1)NC(=O)OCC1c2ccccc2-c2ccccc21)C(N)=O", "Secreted effector protein (Yersinia pestis, UniProt O68720)", "=", 5.54],
  ["CC(C)C[C@H](NC(=O)[C@H](Cc1ccc(C(C(=O)O)C(=O)O)cc1)NC(=O)[C@H](CCC(=O)O)NC(=O)OCC1c2ccccc2-c2ccccc21)C(N)=O", "Secreted effector protein (Yersinia pestis, UniProt O68720)", "<", 3.10],
  ["CC(C)C[C@H](NC(=O)[C@H](Cc1ccc(CC(=O)O)c(C(=O)O)c1)NC(=O)[C@H](CCC(=O)O)NC(=O)OCC1c2ccccc2-c2ccccc21)C(N)=O", "Secreted effector protein (Yersinia pestis, UniProt O68720)", "<", 3.10],
  ["CC(C)C[C@H](NC(=O)[C@H](Cc1ccc(OCC(=O)O)cc1)NC(=O)[C@H](CCC(=O)OCc1ccccc1)NC(=O)OCCc1ccccc1)C(N)=O", "Secreted effector protein (Yersinia pestis, UniProt O68720)", "=", 5.10],
  ["CC(C)C[C@H](NC(=O)[C@H](Cc1ccc(OCC(=O)O)c(C(=O)O)c1)NC(=O)[C@H](CCC(=O)OCc1ccccc1)NC(=O)OCC1c2ccccc2-c2ccccc21)C(N)=O", "Secreted effector protein (Yersinia pestis, UniProt O68720)", "=", 4.98],
  ["CC(C)C[C@H](NC(=O)[C@H](Cc1ccc(CC(=O)O)c(C(=O)O)c1)NC(=O)[C@H](CCC(=O)OCc1ccccc1)NC(=O)OCC1c2ccccc2-c2ccccc21)C(N)=O", "Secreted effector protein (Yersinia pestis, UniProt O68720)", "=", 3.85],
  ["CC(C)C[C@H](NC(=O)[C@H](Cc1ccc(C(F)(F)C(=O)O)cc1)NC(=O)[C@H](CCC(=O)O)NC(=O)OCC1c2ccccc2-c2ccccc21)C(N)=O", "Secreted effector protein (Yersinia pestis, UniProt O68720)", "<", 3.10],
  ["CC(C)C[C@H](NC(=O)[C@H](Cc1ccc(C(F)(C(=O)O)C(=O)O)cc1)NC(=O)[C@H](CCC(=O)O)NC(=O)OCC1c2ccccc2-c2ccccc21)C(N)=O", "Secreted effector protein (Yersinia pestis, UniProt O68720)", "<", 3.10]
]}
